Listing of entries alongside the reported Inhibition Ratio (%) Seed Radicle Var. Zhonghua 11.
System: rice (Oryza sativa) seeds, radicle
TEST: Inhibition of radicle elongation of rice seeds
RECORDED CONDITIONS: 100 µg/mL; 48 h, 25 °C, dark; mean of triplicate ± SD

Below, each entry is followed by its recorded Inhibition Ratio (%) Seed Radicle Var. Zhonghua 11 result.
Data request: Recorded Inhibition Ratio (%) Seed Radicle Var. Zhonghua 11 for CC[C@@]1(C)Oc2cc(ccc2O)[C@@H](O)[C@H](NC)C(=O)N[C@@H](C)C(=O)N[C@@H]1C(=O)NCC(=O)O with rice (Oryza sativa) seeds, radicle, please?
Data returned: 23.78%

Data request: Provide value of Inhibition Ratio (%) Seed Radicle Var. Zhonghua 11 for this record tested with rice (Oryza sativa) seeds, radicle: O=C(O)CNCP(=O)(O)O [Glyphosate, N-(phosphonomethyl)glycine, reference compound]
Data returned: 81.05 ± 2.04 b %

Please turn your attention to the following entry.
Data request: Record CC[C@@]1(C)Oc2cc(c([S+]([O-])C[C@@H](O)C[C@H](N)C(=O)O)cc2O)[C@@H](O)[C@H](NC)C(=O)N[C@@H](C)C(=O)N[C@@H]1C(=O)NCC(=O)O (stereo partly drawn) : what is its Inhibition Ratio (%) Seed Radicle Var. Zhonghua 11 with rice (Oryza sativa) seeds, radicle?
Data returned: 87.80%
